Tested on: MDA-MB-435
Experiment: Cytotoxicity against human MDA-MB-435 cells after 72 hrs by MTT assay
Type: functional, cell-based
Conditions: MDA-MB-435, 72 h
Here the recorded IC50 is given for each entry.
Please don't drop the unit; write it after the number.

Some compounds with recorded IC50:
- Compound: "CC1(C)OC2=C(C(=O)C(=O)c3ccccc32)C1Nc1ccc(F)cc1 (centres undefined)"
  IC50: "0.12 µg/mL"
- Compound: "CC1(C)OC2=C(C(=O)C(=O)c3ccccc32)C1Nc1cccc([N+](=O)[O-])c1 (centres undefined)"
  IC50: "0.23 µg/mL"
- Compound: "Cc1ccc(C)c(NC2C3=C(OC2(C)C)c2ccccc2C(=O)C3=O)c1 (centres undefined)"
  IC50: "0.27 µg/mL"

Then there is this compound:
Inquiry: Entry under review: CC1(C)OC2=C(C(=O)C(=O)c3ccccc32)C1Nc1cccc(Cl)c1 (centres undefined) . Reported IC50?
Reply text: 0.17 µg/mL

====

Tested on: B16
Assay: Cytotoxicity against mouse B16 cells after 72 hrs by MTT assay
Type: functional, cell-based
Settings: B16, 72 h
Measure: IC50 (µg/mL)
State just the number; it will be interpreted in µg/mL.

Below: 3 compounds and their reported IC50.
- Compound: "CC1(C)OC2=C(C(=O)c3ccccc3C2=O)C1Nc1ccccc1 (centres undefined)"
  Tgt: "B16"
  Recorded measurement: 1
- Compound: "Cc1ccc(C)c(NC2C3=C(OC2(C)C)c2ccccc2C(=O)C3=O)c1 (centres undefined)"
  Tgt: "B16"
  Recorded measurement: 3.03
- Compound: "CC1(C)OC2=C(C(=O)C(=O)c3ccccc32)C1Nc1cccc(Cl)c1 (centres undefined)"
  Tgt: "B16"
  Recorded measurement: 0.56

Then there is this compound:
Inquiry: Record request: IC50 value, item CC1(C)OC2=C(C(=O)C(=O)c3ccccc32)C1Nc1ccc(F)cc1 (centres undefined)
Reply text: 0.42
